measurement_protocol: Drug level in tumor of nude mouse bearing HT29 or HCT116 tumor at 200 mg/kg, po after 8 hrs
Assay type: ADME, organism-based, Neoplasm
Design: dose 200 mg/kg, route oral
test_context: read-out: Ct
property_name: concentration at 8 h (µg/mL)
Give the quantity in µg/mL, number only.

Record Cc1ccc2c(NCc3ccc(NC(=O)C4CCN(Cc5ccccc5)CC4)cc3)nc(N(C)C)nc2c1 , field concentration at 8 h: 90.7

* * *

measurement_protocol: Drug level in tumor of nude mouse bearing HT29 or HCT116 cells at 50 mg/kg, po after 8 hrs
Assay type: ADME, organism-based, Neoplasm, HCT-116
Set-up: dose 50 mg/kg, route oral
test_context: read-out: Ct
property_name: concentration at 8 h
Put your answer as a value accompanied by its unit after it.

The value of concentration at 8 h measured for the compound Cc1ccc2c(NCc3ccc(NC(=O)C4CCN(Cc5ccc(F)cc5)CC4)cc3)nc(N(C)C)nc2c1 turned out to be 70.3 µg/mL

* * *

measurement_protocol: Aqueous solubility at pH 3
Assay type: physicochemical
property_name: solubility

Sure, the documented solubility for Cc1ccc2c(NCc3ccc(NC(=O)C4CCN(Cc5ccccc5)CC4)cc3)nc(N(C)C)nc2c1 is > 100 µg/mL

* * *

measurement_protocol: Plasma concentration in mouse at 200 mg/kg, po after 8 hrs
Format: ADME, organism-based
Parameters: dose 200 mg/kg, route oral
property_name: concentration at 8 h (ng/mL)
The reply should be a number in ng/mL, with the unit left off.

The measured concentration at 8 h associated with Cc1ccc2c(NCc3ccc(NC(=O)C4CCN(Cc5ccccc5)CC4)cc3)nc(N(C)C)nc2c1 reads 2970

* * *

measurement_protocol: Aqueous solubility at pH 7.4
Assay type: physicochemical
property_name: solubility (µg/mL)
Please reply with the bare figure in µg/mL and do not write the unit itself.

The molecule listed as Cc1ccc2c(NCc3ccc(NC(=O)C4CCN(Cc5ccccc5)CC4)cc3)nc(N(C)C)nc2c1 has a reported solubility of 43

* * *

measurement_protocol: Plasma concentration in nude mouse at 50 mg/kg, po after 8 hrs
Format: ADME, organism-based
Parameters: dose 50 mg/kg, route oral
property_name: concentration at 8 h

The value of concentration at 8 h measured for the compound Cc1ccc2c(NCc3ccc(NC(=O)C4CCN(Cc5ccc(F)cc5)CC4)cc3)nc(N(C)C)nc2c1 turned out to be 440 ng/mL
